assayTarget: Voltage-dependent calcium channel gamma-2 subunit (Mus musculus) + Glutamate receptor 2 (Rattus norvegicus) (UniProt O88602+P19491)
Sequence (O88602 whole entry, looked up): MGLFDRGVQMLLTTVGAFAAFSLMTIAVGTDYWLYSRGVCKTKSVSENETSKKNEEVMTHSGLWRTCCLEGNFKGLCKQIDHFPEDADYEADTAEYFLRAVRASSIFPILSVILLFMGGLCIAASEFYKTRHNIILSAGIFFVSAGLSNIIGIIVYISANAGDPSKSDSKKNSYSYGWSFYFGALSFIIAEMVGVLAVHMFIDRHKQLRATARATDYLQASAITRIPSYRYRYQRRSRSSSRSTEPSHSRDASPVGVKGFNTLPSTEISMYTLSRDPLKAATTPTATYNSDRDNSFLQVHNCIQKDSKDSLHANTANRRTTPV
Sequence (P19491 whole entry, looked up): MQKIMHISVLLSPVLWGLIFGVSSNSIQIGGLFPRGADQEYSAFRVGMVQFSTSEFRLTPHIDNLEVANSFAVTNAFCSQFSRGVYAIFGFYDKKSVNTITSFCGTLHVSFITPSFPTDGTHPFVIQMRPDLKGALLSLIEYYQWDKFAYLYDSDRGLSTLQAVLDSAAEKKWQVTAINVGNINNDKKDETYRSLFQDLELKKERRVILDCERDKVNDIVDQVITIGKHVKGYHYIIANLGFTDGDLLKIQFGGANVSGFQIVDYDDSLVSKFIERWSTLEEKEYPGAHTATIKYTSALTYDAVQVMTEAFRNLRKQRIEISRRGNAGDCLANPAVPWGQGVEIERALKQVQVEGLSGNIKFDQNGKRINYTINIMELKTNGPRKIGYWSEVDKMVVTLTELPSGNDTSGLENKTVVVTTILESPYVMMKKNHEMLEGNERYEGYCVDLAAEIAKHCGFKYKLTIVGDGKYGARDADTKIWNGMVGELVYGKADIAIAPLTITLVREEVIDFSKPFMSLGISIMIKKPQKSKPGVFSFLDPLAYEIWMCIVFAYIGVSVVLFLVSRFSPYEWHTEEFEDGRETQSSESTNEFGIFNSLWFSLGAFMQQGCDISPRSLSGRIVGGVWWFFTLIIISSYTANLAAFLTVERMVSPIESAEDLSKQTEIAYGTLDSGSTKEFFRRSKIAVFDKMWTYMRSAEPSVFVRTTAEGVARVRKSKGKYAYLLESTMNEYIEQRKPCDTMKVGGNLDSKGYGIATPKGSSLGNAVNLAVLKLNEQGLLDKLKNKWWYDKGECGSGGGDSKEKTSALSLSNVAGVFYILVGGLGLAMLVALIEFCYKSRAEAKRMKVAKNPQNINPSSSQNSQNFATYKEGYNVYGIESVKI
test: modulators of GluA2-stargazin AMPA receptor complexes, primary screen, cell-based, membrane potential dye (AID 1259245)
protocolConditions: HEK293 GluA2+stargazin, membrane potential dye (FDSS), glutamate EC50, at 30 µM, hits were called plate by plate, in both directions; compound-alone response (agonism)
About 1,400 (3.5%) of roughly 40,000 compounds were called active. For the sample, actives were picked, then their nearest neighbours and some compounds at random.
endpointName: compound max-min signal

[[record]]
mol = "CCc1ccc(S(=O)(=O)N2CCN(c3ccc(Nc4cccc(C)n4)nn3)CC2)cc1"
endpointname = "compound max-min signal"
reading = 0.366

[[record]]
mol = "COc1ccc(CNC(=O)C(=O)NCC2CCN(Cc3cccs3)CC2)cc1"
endpointname = "compound max-min signal"
reading = 0.0534

[[record]]
mol = "COC(=O)c1ccc2c(=O)n(Cc3ccc(C(=O)N4CCCCCC4)cc3)c(=S)[nH]c2c1"
endpointname = "compound max-min signal"
reading = 0.108


---

assayTarget: Voltage-dependent calcium channel gamma-2 subunit (Mus musculus) + Glutamate receptor 2 (Rattus norvegicus) (UniProt O88602+P19491)
test: modulators of GluA2-stargazin AMPA receptor complexes, primary screen, cell-based, membrane potential dye (AID 1259245)
protocolConditions: HEK293 GluA2+stargazin, membrane potential dye (FDSS), glutamate EC50, at 30 µM, hits were called plate by plate, in both directions; measured here: glutamate response slope, % max
In all, about 40,000 compounds went through this assay and about 1,400 (3.5%) were called active. What follows is part of a selection rich in actives, with near analogues and random picks from the rest.
Entry flag: t if glutamate slope, % of max reaches 50%; f if it does not.

[[record]]
compound = "CN1C(=O)Cc2cc(NC(=O)NC(c3ccccc3)c3ccccc3)ccc21"
assignedclass = "t"

[[record]]
compound = "O=C(c1ccc(Cl)s1)N1CCC(c2ccsc2)CC1"
assignedclass = "t"

[[record]]
compound = "COc1ccc(Cl)cc1NC(=O)CC1C(=O)NCCN1C(=S)Nc1ccccc1 (stereo unspecified)"
assignedclass = "f"

[[record]]
compound = "COC(=O)c1ccc(NC(=O)Cn2c(=O)n(C(C)C)c(=O)c3nscc32)cc1"
assignedclass = "t"

[[record]]
compound = "CN(C)C(CNC(=O)C(=O)Nc1ccc2c(c1)OCCO2)c1cccn1C (stereo unspecified)"
assignedclass = "t"

[[record]]
compound = "O=S(=O)(CCCOc1ccc(F)cc1)NCCCc1ccccc1"
assignedclass = "t"

[[record]]
compound = "COc1ccc(/C=C2\\Oc3c(ccc4c3CN(c3ccc(F)cc3)CO4)C2=O)c(OC)c1OC"
assignedclass = "t"

[[record]]
compound = "COc1cn(CC(=O)Nc2cccc(C)c2C)c(CN2CCOCC2)cc1=O"
assignedclass = "f"

[[record]]
compound = "CSc1ccccc1NC(=O)C(=O)NCC(O)(c1ccco1)C1CC1 (stereo unspecified)"
assignedclass = "t"


---

Listed next: entries and their corresponding compound max-min signal.
assayTarget: Voltage-dependent calcium channel gamma-2 subunit (Mus musculus) + Glutamate receptor 2 (Rattus norvegicus) (UniProt O88602+P19491)
test: modulators of GluA2-stargazin AMPA receptor complexes, primary screen, cell-based, membrane potential dye (AID 1259245)
protocolConditions: HEK293 GluA2+stargazin, membrane potential dye (FDSS), glutamate EC50, at 30 µM, hits were called plate by plate, in both directions; compound-alone response (agonism)
The campaign covered roughly 40,000 compounds. About 1,400 (3.5%) were called active. The full list was thinned out, with actives kept by preference.
endpointName: compound max-min signal

[[record]]
compound = "COc1ccc(C)cc1S(=O)(=O)NCC1CCN(C2CCCC2)CC1"
endpointname = "compound max-min signal"
reading = 0.046

[[record]]
compound = "COc1cn(CC(=O)Nc2ccc3c(c2)OCO3)c(CSc2nnnn2C)cc1=O"
endpointname = "compound max-min signal"
reading = 0.0535

[[record]]
compound = "CSc1ccccc1C(=O)NCC(C)(O)C1CC1 (stereo not given)"
endpointname = "compound max-min signal"
reading = 0.0943

[[record]]
compound = "O=C(c1ccc(Cl)s1)N1CCC(c2ccsc2)CC1"
endpointname = "compound max-min signal"
reading = 0.0754

[[record]]
compound = "O=S(=O)(c1ccc(C2CCCCC2)cc1)N1CCC(Cc2ccccc2)CC1"
endpointname = "compound max-min signal"
reading = 0.0564

[[record]]
compound = "CC(=O)c1ccc(NC(=O)CSc2ccc(NC(=O)c3ccco3)nn2)cc1"
endpointname = "compound max-min signal"
reading = 0.0373

[[record]]
compound = "O=C(CCSc1ccccc1)NCC1(c2cccs2)CCOCC1"
endpointname = "compound max-min signal"
reading = 0.0983

[[record]]
compound = "O=C(NCC(O)(c1ccccc1)C1CC1)c1ccccc1Br (stereo not given)"
endpointname = "compound max-min signal"
reading = 0.0722

[[record]]
compound = "Cc1ccc(C(=O)Nc2ccc(SCC(=O)NCc3ccc4c(c3)OCO4)nn2)cc1"
endpointname = "compound max-min signal"
reading = 0.0549

[[record]]
compound = "CCOc1ccc(C)cc1S(=O)(=O)Nc1cc(Cl)ccc1O"
endpointname = "compound max-min signal"
reading = 0.184

[[record]]
compound = "CCN(CC)C(=O)C(=O)c1cn(CC(=O)N2CCOCC2)c2ccccc12"
endpointname = "compound max-min signal"
reading = 0.0509

[[record]]
compound = "Cn1c(=O)c2c(ncn2CCc2ccccc2)n(C)c1=O"
endpointname = "compound max-min signal"
reading = 0.12

[[record]]
compound = "COc1cccc(C(CNC(=O)c2ccc(OC(C)C)cc2)N2CCOCC2)c1 (stereo not given)"
endpointname = "compound max-min signal"
reading = 0.0693

[[record]]
compound = "COCc1cnc2c(c1SCc1ccc(Br)cc1)c(=O)n(C)c(=O)n2C"
endpointname = "compound max-min signal"
reading = 0.0342

[[record]]
compound = "COc1cccc(CNC(=O)CSc2ccc(NC(=O)c3cccc(F)c3)nn2)c1"
endpointname = "compound max-min signal"
reading = 0.0911

[[record]]
compound = "CCN1C(SCC(=O)Nc2cccc(Cl)c2)=NS(=O)(=O)c2ccccc21"
endpointname = "compound max-min signal"
reading = 0.0878

[[record]]
compound = "COc1ccc(CCNC(=O)Nc2c[nH]c3ccccc23)cc1"
endpointname = "compound max-min signal"
reading = 0.127

[[record]]
compound = "CCOCCn1c(=NC(=O)c2cc(C)no2)sc2cc(OC)c(OC)cc21"
endpointname = "compound max-min signal"
reading = 0.187

[[record]]
compound = "Cn1nnc2c(N(CCc3ccccc3)Cc3ccccc3)ncnc21"
endpointname = "compound max-min signal"
reading = 0.0947

[[record]]
compound = "Cc1cc(S(=O)(=O)NCC2(O)CCCC2)ccc1F"
endpointname = "compound max-min signal"
reading = 0.0902

[[record]]
compound = "O=C(/C=C/c1ccccc1)Nc1ccc(CC(=O)N2CCCC2)cc1"
endpointname = "compound max-min signal"
reading = 0.119

[[record]]
compound = "COCCNC(=O)C(=O)Nc1cc(N2CCCS2(=O)=O)ccc1OC"
endpointname = "compound max-min signal"
reading = 0.105

[[record]]
compound = "Cc1cnc2c(c1NCCc1ccc(S(N)(=O)=O)cc1)c(=O)n(C)c(=O)n2C"
endpointname = "compound max-min signal"
reading = 0.167

[[record]]
compound = "O=C(CSc1ccc(NC(=O)c2ccco2)nn1)Nc1ccc(OC(F)(F)F)cc1"
endpointname = "compound max-min signal"
reading = 0.106

[[record]]
compound = "CCOc1ccc2nc(NC(=O)c3ccc(S(=O)(=O)Nc4cccnc4)o3)sc2c1"
endpointname = "compound max-min signal"
reading = 0.179

[[record]]
compound = "COc1cc2nc(NC(=O)c3cc(C)no3)sc2cc1OC"
endpointname = "compound max-min signal"
reading = 0.204

[[record]]
compound = "Cc1ccc2nc(NC(=O)c3ccno3)sc2c1"
endpointname = "compound max-min signal"
reading = 0.16

[[record]]
compound = "Cc1ccc(C(=O)Nc2cccc(N3CCCC3=O)c2)cc1[N+](=O)[O-]"
endpointname = "compound max-min signal"
reading = 0.195

[[record]]
compound = "Cc1cc(S(=O)(=O)NCCn2nc(-c3ccc(F)cc3)ccc2=O)ccc1F"
endpointname = "compound max-min signal"
reading = 0.0676

[[record]]
compound = "COC(=O)N1CCC(CNS(=O)(=O)c2ccc(OC(F)(F)F)cc2)CC1"
endpointname = "compound max-min signal"
reading = 0.114

[[record]]
compound = "Cc1cc(C)cc(-n2c(SCC#N)nc3cc(C(=O)NC4CCCC4)ccc3c2=O)c1"
endpointname = "compound max-min signal"
reading = 0.127

[[record]]
compound = "CCOC(=O)c1ccc(-n2c(C)c(C)n3c4c(=O)n(CC)c(=O)n(C)c4nc23)cc1"
endpointname = "compound max-min signal"
reading = 0.126

[[record]]
compound = "COc1ccc(C(=O)NCCOc2ccc(-c3ccc(F)cc3)nn2)c(OC)c1"
endpointname = "compound max-min signal"
reading = 0.0424

[[record]]
compound = "CCn1ccnc1N1CCN(C(=O)CCS(=O)(=O)c2ccccc2)CC1"
endpointname = "compound max-min signal"
reading = 0.0601

[[record]]
compound = "CC(C)C(=O)Nc1ccc(SCC(=O)c2ccccc2)nn1"
endpointname = "compound max-min signal"
reading = 0.113

[[record]]
compound = "COc1ccc(C(CNC(=O)c2ccccc2Cl)N2CCOCC2)cc1 (stereo not given)"
endpointname = "compound max-min signal"
reading = 0.07

[[record]]
compound = "COc1cccc(NC(=O)c2ccc(=O)n(Cc3cccc(C(F)(F)F)c3)c2)c1"
endpointname = "compound max-min signal"
reading = 0.0915

[[record]]
compound = "O=C(Nc1onc2c1CCCC2)c1nc(-c2cnccn2)no1"
endpointname = "compound max-min signal"
reading = 0.128

[[record]]
compound = "COc1ccc2c(=O)c(Oc3ccc(C(=O)Nc4cccnc4)cc3)c(C)oc2c1"
endpointname = "compound max-min signal"
reading = 0.137

[[record]]
compound = "CCCNC(=O)Cn1c(=O)c2c(N3CCN(C(=O)c4ccco4)CC3)c(C)cnc2n(C)c1=O"
endpointname = "compound max-min signal"
reading = 0.127

